Just for reference, patent US10610526B2 is where these values come from.

system.tested: α4β2 nAChRs (Homo sapiens, UniProt P17787+P43681)
Sequence (P43681 29-627 limits assumed): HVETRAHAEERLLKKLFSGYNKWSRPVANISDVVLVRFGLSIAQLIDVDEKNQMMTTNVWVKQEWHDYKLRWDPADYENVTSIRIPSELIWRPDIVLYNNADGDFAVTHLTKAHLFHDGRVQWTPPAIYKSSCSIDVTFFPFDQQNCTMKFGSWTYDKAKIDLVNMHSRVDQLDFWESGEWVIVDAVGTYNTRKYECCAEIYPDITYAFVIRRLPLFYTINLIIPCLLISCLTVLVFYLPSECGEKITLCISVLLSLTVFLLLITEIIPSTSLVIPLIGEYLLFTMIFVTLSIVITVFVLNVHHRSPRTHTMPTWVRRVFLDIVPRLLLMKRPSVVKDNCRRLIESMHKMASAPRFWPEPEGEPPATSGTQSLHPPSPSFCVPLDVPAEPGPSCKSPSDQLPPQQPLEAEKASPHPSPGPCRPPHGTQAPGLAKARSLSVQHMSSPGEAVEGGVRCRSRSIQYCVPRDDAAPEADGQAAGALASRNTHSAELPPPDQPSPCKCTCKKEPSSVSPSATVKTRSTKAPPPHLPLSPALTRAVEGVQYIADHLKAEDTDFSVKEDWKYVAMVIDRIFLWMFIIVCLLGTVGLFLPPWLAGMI
Sequence (P17787 26-502): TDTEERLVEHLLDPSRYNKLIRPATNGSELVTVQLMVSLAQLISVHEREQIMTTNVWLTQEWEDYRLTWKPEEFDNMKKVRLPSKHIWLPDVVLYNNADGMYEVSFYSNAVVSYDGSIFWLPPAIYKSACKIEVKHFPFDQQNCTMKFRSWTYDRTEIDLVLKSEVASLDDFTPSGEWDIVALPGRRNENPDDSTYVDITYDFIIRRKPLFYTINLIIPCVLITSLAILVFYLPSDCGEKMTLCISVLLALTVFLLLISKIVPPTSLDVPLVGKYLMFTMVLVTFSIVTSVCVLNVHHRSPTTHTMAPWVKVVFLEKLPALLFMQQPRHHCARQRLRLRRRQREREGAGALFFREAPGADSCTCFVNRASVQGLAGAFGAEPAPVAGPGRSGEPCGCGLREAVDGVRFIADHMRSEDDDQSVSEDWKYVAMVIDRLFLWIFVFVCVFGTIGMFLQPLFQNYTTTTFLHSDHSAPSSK
protocol.summary: cell-based
Assay type: cell-based
Recorded Agonist Effect Hillslope values for a group of compounds are listed next.
Please give the numeric answer without any surrounding text.

[
  {
    "compound": "CN1CCCC1c1cccnc1 (stereo not shown) [Ref. nicotine (Sigma-Aldrich), nicotine]",
    "Agonist Effect Hillslope": "−0.80"
  }
]

Exercise: Provide one value: measured Agonist Effect Hillslope of CN1CCC[C@@H]1c1cccnc1 [Synthetic R nicotine, R nicotine]
Key: −0.87

Exercise: Provide one value: measured Agonist Effect Hillslope of CN1CCC[C@H]1c1cccnc1 [Alchem S nicotine, S nicotine]
Key: −0.81

Exercise: Provide one value: measured Agonist Effect Hillslope of CN1CCC[C@H]1c1cccnc1 [Sigma-Aldrich S nicotine, S nicotine]
Key: −0.84
